What polymerase ribozyme fitness (log ratio) was measured for each of the following?
B1: TPR 5TU (parent)
chain: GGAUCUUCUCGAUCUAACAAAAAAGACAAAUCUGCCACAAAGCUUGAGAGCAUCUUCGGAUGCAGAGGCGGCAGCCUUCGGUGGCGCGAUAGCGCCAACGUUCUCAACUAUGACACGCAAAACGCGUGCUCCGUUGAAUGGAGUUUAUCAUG

variants of: B1; test: polymerase ribozyme fitness, log enrichment relative to wild type (log ratio); higher = more active; in vitro selection for triplet polymerase activity
This sample holds only a part of the variants without activity.
Give only the figure.

## Input Can you share its polymerase ribozyme fitness (log ratio)? I mean this variant: A37C A47C
## Output -1.24

## Input Find the recorded polymerase ribozyme fitness (log ratio) belonging to C96G C105G and report it.
## Output -1.92

## Input What value of polymerase ribozyme fitness (log ratio) has been recorded for this entry: U31A U135G G143C
## Output -3.93

## Input Tell me the measured polymerase ribozyme fitness (log ratio) of G34A G140A , please.
## Output -3.88

## Input What value of measured polymerase ribozyme fitness (log ratio) is listed for U144G U145A ?
## Output 0.571

## Input Entry under review: U127A U134C G141C . Reported polymerase ribozyme fitness (log ratio)?
## Output -3.82

## Input Could you tell me which polymerase ribozyme fitness (log ratio) is on file for A52G U78C ?
## Output -0.764

## Input Param item = C85A C105U ; retrieve measured polymerase ribozyme fitness (log ratio).
## Output -1.89

## Input Please report the recorded polymerase ribozyme fitness (log ratio) for A17U A19G A22U C93A .
## Output -4.01

## Input polymerase ribozyme fitness (log ratio) lookup needed for C27G C32U C36U G88A C99U G141U G152C , thanks.
## Output -4.05

## Input Data request, read-out polymerase ribozyme fitness (log ratio), for C85U G143A
## Output 0.273

## Input Look up polymerase ribozyme fitness (log ratio): C18U G94A
## Output -1.37

## Input If you can, please state the reported polymerase ribozyme fitness (log ratio) value of C54U C93U .
## Output -1.99

## Input Form field: reported polymerase ribozyme fitness (log ratio) of A22C G141U
## Output 1.81

## Input Quick check: polymerase ribozyme fitness (log ratio) of C18U C38U U55C A97U A120C ?
## Output -1.43

## Input Value lookup for polymerase ribozyme fitness (log ratio); key = A24U G34A G92C A137G
## Output -4.07

## Input Given the entry C57U C93A , report its measured polymerase ribozyme fitness (log ratio).
## Output -1.61

## Input Tell me the measured polymerase ribozyme fitness (log ratio) of A41C G58A , please.
## Output 0.163

## Input Which value of polymerase ribozyme fitness (log ratio) has been reported for A17C C57A C114U in the records?
## Output -1.86

## Input polymerase ribozyme fitness (log ratio) for G48A G83C ?
## Output -1.78
